B1: ZNF263 (parent)
chain: RTHTGEKPYKCTLCGENFSHRSNL

# Variants of: B1
# protocolDescription: protein stability index of a GFP-peptide fusion (GPS, HEK-293T) (PSI 1-6); higher = more stable;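 note: lentivirally expressed fusions sorted by FACS into six bins by GFP to DsRed ratio, PSI derived from sequencing read proportions per bin multiplied by bin number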
# conditionsUsed: c terminus: a fixed tail appended

mutationName	protein stability index
T4H	1.91
K10P	2.03
L13M	1.76
C11S	3.36
S19M	1.96
H20I	2.04
K10I	1.72
C14H	2.84
R21S	1.96
E16Q	2.46
P8N	1.96
R1G	1.8
P8I	1.63
N17W	2.42
K7F	1.85
L13R	1.56
T4R	3.78
T4S	2.03
H3L	2.35
F18C	3.74
S22V	1.91
H20V	1.89

Data origin, for the record: the supplement of paper PMC10567573
